system.tested: human RORγt LBD fused to the DNA binding domain of the GAL4 protein (Homo sapiens (Human), UniProt P51449)
Sequence (P51449 258-518): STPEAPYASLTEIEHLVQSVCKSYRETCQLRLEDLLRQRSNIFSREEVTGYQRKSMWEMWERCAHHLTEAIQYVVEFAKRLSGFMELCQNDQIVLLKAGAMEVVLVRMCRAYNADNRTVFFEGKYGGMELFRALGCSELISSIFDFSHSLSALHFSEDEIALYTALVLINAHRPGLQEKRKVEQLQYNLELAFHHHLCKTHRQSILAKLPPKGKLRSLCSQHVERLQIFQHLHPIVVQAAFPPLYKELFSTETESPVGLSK
assay.name: RORγt (LBD) reporter assay in HEK293T cells
Assay type: cell-based
cond: HEK-293T, read-out: RORγt (LBD) Reporter Assay, % inhibition @ 6 μM, @ 6 μM
parameter: inhibition at 6 µM (%)
Numbers only, in %.

{"compound": "COc1nc2ccc(C(O)(c3ccc(C)nc3C)c3cnnn3C)cc2c(Cl)c1CN1CC(C(F)(F)F)C1 (single isomer, unassigned) [Example 114b]", "number": 60}
{"compound": "Cn1cncc1C(O)(c1ccc(C(F)(F)F)nc1)c1ccc2nc(N3CCC3)c(OCc3ccccc3)c(Cl)c2c1 (centres unmarked) [Example 31]", "number": -32}
{"compound": "COc1nc2ccc(C(O)(c3cncn3C)C3CCN(C(C)=O)CC3)cc2c(Cl)c1CC1CCOCC1 (single isomer, unassigned) [Example 5b]", "number": 33}
{"compound": "COc1nc2ccc(C(O)(c3ccc(C)nc3C)c3cnnn3C)cc2c(Cl)c1OCCN1CCCC1 (single isomer, unassigned) [Example 67b]", "number": -37}
{"compound": "COc1nc2ccc(C(O)(c3cncn3C)C3CCN(C(C)=O)CC3)cc2c(Cl)c1CC1CCOCC1 (centres unmarked) [Example 5a]", "number": 45}
{"compound": "COc1nc2ccc(C(O)(c3ccc(C(F)(F)F)nc3)c3cncn3C)cc2c(Cl)c1C1=CCN(C)CC1 (centres unmarked) [Example 33]", "number": -32}

List the reported inhibition at 6 µM of each compound below.
1. COc1nc2ccc(C(O)(c3cnc(C)n3C)c3cnc(C)n3C)cc2c(Cl)c1OCc1ccccc1 [Example 75]
2. COc1nc2ccc(C(O)(c3ccc(C)nc3C)c3cnnn3C)cc2c(Cl)c1OCC1CC1(F)F (centres unmarked) [Example 72a]
3. COc1nc2ccc(C(O)(c3ccc(C(F)(F)F)nc3)c3cncn3C)cc2c(Cl)c1CCC1CCN(C(C)=O)CC1 (centres unmarked) [Example 32]
4. COc1nc2ccc(C(O)(c3ccccc3)C3CCN(C(C)=O)CC3)cc2c(Cl)c1CC1CCOCC1 (centres unmarked) [Example 4a]
5. COc1nc2ccc(C(O)(c3ccc(C)nc3C)c3cnnn3C)cc2c(Cl)c1OCC1CC1 (centres unmarked) [Example 68a]
6. COc1nc2ccc(C(O)(c3ccc(C)nc3C)c3cnnn3C)cc2c(Cl)c1OCc1ncccn1 (single isomer, unassigned) [Example 66b]
7. COc1nc2ccc(C(O)(c3ccc(C)nc3C)c3cnnn3C)cc2c(Cl)c1OCCS(C)(=O)=O (centres unmarked) [Example 70a]
8. Cc1c(-c2ccc3c(cnn3C)c2)nc2ccc(C(O)(c3cccnc3)c3cccc(Cl)c3)cc2c1Cl (centres unmarked) [Example 24]

[out]
1: -1; 2: 85; 3: 32; 4: 24; 5: 83; 6: -129; 7: 36; 8: 29
